# STUDY_SYSTEM: NEK2 (human) (UniProt P51955)
# Sequence (P51955 whole entry, looked up): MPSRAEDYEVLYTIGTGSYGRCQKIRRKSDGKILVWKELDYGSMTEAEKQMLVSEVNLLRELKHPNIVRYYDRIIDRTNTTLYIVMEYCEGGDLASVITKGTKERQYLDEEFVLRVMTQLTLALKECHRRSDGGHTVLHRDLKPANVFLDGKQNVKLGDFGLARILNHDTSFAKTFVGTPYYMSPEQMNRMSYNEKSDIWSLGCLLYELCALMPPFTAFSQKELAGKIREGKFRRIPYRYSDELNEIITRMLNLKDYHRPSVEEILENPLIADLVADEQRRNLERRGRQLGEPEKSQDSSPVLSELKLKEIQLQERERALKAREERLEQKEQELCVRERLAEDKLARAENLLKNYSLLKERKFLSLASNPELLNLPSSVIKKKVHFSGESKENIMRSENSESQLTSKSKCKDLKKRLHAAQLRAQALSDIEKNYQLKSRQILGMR
# ASSAY: KINOMEscan competition binding
# EXPERIMENTAL_SETUP: compound 10.0 µM
OBSERVATION_TYPE: kinase still bound, per cent of control (%)
Return type: number; implicit unit %.

Lab note: measured kinase still bound, per cent of control of N#Cc1cc(-c2ccnc(Nc3ccc(-n4cnc(-c5cccnc5)n4)cc3)n2)cc(N2CCOCC2)c1 was 94

Lab note: measured kinase still bound, per cent of control of CCN1CCN(Cc2ccc(NC(=O)c3ccc(C)c(/C=C/c4cnc5[nH]ccc5c4OC)c3)cc2C(F)(F)F)CC1 was 100

Lab note: measured kinase still bound, per cent of control of CC(=O)c1c(C)c2cnc(Nc3ccc(N4CCNCC4)cn3)nc2n(C2CCCC2)c1=O was 31

Lab note: measured kinase still bound, per cent of control of O=c1[nH]c2ccccc2n1C1CCN(Cc2ccc(-c3nc4cc5[nH]cnc5cc4nc3-c3ccccc3)cc2)CC1 was 100

Lab note: measured kinase still bound, per cent of control of COc1cc2c(Nc3ccc(NC(=O)c4ccccc4)cc3)ncnc2cc1OCCCN1CCOCC1 was 51

Lab note: measured kinase still bound, per cent of control of CNC(=O)Nc1ccc(-c2nc(N3CC4CCC(C3)O4)c3cnn(C4CCC5(CC4)OCCO5)c3n2)cc1 was 72

* * *

# Tested on: PIK3CA (human), P42336 [M1043I]
# Sequence (P42336 whole entry M1043I, looked up): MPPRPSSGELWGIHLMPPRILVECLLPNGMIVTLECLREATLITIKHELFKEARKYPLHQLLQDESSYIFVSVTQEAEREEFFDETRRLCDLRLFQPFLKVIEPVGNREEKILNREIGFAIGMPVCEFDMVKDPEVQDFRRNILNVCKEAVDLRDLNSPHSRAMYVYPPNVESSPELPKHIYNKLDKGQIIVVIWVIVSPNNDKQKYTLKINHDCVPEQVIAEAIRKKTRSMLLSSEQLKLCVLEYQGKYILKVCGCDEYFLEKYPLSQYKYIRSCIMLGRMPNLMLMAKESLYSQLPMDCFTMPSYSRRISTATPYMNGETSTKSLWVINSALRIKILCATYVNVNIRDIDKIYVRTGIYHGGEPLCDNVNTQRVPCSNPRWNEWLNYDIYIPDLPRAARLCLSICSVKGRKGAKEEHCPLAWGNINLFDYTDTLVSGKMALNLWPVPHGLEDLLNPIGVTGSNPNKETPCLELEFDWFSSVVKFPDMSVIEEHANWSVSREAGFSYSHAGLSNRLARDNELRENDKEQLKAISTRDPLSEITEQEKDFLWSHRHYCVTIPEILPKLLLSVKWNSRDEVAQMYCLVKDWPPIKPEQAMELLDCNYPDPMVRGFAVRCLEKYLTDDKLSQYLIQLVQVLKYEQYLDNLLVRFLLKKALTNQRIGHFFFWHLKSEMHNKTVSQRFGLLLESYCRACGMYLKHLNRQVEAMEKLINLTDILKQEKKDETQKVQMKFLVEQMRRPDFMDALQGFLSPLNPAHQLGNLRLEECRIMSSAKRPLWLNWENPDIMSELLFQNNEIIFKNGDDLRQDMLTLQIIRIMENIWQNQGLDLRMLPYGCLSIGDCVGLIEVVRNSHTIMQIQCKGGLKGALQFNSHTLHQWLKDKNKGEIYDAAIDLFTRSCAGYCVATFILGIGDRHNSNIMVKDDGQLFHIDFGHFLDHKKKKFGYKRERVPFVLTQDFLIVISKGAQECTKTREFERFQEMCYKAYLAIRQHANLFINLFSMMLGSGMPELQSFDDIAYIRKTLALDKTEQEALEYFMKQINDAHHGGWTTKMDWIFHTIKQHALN
# ASSAY: KINOMEscan competition binding
# EXPERIMENTAL_SETUP: compound 10.0 µM
OBSERVATION_TYPE: kinase still bound, per cent of control (%)
Return type: number; implicit unit %.

# example entries with known answers
1) CCN1CCN(Cc2ccc(NC(=O)c3ccc(C)c(/C=C/c4cnc5[nH]ccc5c4OC)c3)cc2C(F)(F)F)CC1 = 84
2) CCOc1cc(N2CCC(O)CC2)ccc1Nc1ncc2c(n1)N(C)c1ccccc1C(=O)N2C = 100
3) CCOc1cc2ncc(C#N)c(Nc3ccc(OCc4ccccn4)c(Cl)c3)c2cc1NC(=O)/C=C/CN(C)C = 100
4) CCCS(=O)(=O)Nc1ccc(F)c(C(=O)c2c[nH]c3ncc(Cl)cc23)c1F = 76
5) Cc1cn(-c2cc(C(=O)Nc3ccc(C)c(NC(=O)c4ccno4)c3)cc(C(F)(F)F)c2)cn1 = 100

The measured kinase still bound, per cent of control that O=C1NC(=O)/C(=C/c2ccc3nccc(-c4ccncc4)c3c2)S1 showed for PIK3CA (human), P42336 [M1043I] is 0

The measured kinase still bound, per cent of control that O=C(NC1CC1)c1cccc(-c2ccc3c(NC(=O)C4CC4)n[nH]c3c2)c1 showed for PIK3CA (human), P42336 [M1043I] is 92

The measured kinase still bound, per cent of control that CCN1CCN(C(=O)Cc2ccc(Nc3ncc(F)c(Nc4ccc(C(=O)Nc5ccccc5Cl)cc4)n3)cc2)CC1 showed for PIK3CA (human), P42336 [M1043I] is 100

The measured kinase still bound, per cent of control that OCCCNc1cc(-c2ccnc(Nc3cccc(Cl)c3)n2)ccn1 showed for PIK3CA (human), P42336 [M1043I] is 100

* * *

# STUDY_SYSTEM: CDC42BPA (human) (UniProt Q5VT25)
# Sequence (Q5VT25 whole entry, looked up): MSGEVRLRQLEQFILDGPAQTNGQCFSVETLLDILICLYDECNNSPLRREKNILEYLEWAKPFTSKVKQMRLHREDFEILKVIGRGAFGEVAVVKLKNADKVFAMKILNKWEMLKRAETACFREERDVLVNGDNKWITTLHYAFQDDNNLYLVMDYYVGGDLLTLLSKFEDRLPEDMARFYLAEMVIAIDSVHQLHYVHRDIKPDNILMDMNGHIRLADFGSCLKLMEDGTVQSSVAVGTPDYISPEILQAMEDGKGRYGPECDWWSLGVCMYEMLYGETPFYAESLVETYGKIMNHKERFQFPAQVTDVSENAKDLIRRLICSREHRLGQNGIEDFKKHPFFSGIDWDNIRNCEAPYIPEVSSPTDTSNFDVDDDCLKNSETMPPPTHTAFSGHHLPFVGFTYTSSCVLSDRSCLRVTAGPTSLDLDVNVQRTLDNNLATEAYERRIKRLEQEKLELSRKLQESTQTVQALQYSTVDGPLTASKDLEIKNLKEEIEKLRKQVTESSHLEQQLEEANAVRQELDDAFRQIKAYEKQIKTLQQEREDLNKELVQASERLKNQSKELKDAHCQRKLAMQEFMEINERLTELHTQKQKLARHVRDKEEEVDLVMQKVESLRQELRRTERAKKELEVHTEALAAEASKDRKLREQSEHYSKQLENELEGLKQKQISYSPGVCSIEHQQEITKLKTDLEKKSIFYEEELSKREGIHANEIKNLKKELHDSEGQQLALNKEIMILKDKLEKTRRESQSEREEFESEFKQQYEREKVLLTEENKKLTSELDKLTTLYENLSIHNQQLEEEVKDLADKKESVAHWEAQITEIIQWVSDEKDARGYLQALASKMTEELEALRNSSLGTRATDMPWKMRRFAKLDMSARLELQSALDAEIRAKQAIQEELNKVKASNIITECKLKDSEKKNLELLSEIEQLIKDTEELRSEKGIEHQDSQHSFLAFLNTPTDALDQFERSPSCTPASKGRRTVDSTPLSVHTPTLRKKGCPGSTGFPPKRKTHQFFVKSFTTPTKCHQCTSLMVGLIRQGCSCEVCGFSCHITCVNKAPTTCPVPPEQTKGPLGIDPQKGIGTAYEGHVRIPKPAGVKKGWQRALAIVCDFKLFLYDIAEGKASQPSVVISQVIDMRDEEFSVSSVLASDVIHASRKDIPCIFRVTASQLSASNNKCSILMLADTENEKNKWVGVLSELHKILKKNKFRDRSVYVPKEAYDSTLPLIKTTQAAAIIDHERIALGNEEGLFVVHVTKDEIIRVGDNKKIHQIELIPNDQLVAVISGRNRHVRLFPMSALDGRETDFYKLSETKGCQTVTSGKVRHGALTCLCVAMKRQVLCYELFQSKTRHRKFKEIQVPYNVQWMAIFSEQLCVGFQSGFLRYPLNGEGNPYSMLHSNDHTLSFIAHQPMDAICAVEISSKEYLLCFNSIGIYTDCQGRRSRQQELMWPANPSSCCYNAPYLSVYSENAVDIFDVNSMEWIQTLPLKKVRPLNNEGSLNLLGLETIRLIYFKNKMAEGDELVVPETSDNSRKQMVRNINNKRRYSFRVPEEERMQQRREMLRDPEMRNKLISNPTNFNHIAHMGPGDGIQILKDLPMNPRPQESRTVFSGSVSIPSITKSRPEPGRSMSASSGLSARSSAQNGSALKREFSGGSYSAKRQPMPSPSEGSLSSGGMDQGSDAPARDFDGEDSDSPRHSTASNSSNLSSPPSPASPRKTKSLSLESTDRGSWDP
# ASSAY: KINOMEscan competition binding
# EXPERIMENTAL_SETUP: compound 10.0 µM
OBSERVATION_TYPE: kinase still bound, per cent of control (%)
Return type: number; implicit unit %.

# example entries with known answers
1) CCc1nc(-c2cccc(C)c2)c(-c2ccnc(NC(=O)c3ccccc3)c2)s1 = 82
2) COc1cc2ncnc(Nc3cccc(Cl)c3)c2cc1OC = 77
3) N#C/C(=C1/Nc2ccccc2S1)c1ccnc(NCCc2cccnc2)n1 = 83
4) CC(=O)c1c(C)c2cnc(Nc3ccc(N4CCNCC4)cn3)nc2n(C2CCCC2)c1=O = 98
5) O=c1[nH]c2ccccc2n1C1CCN(Cc2ccc(-c3nc4cc5[nH]cnc5cc4nc3-c3ccccc3)cc2)CC1 = 85

Please examine the following record next.
The measured kinase still bound, per cent of control that CC1=C(C(=O)Nc2cc3cn[nH]c3cc2F)C(c2ccc(C(F)(F)F)cc2)CC(=O)N1 (stereo not drawn) showed for CDC42BPA (human) (UniProt Q5VT25) is 79

* * *

# Tested on: EGFR (human), P00533 [G719C]
# ASSAY: KINOMEscan competition binding
# EXPERIMENTAL_SETUP: compound 10.0 µM
Binary label based on kinase still bound, per cent of control with cut-off 90%: below gives 1, not below gives 0.

The following compounds have reported results that may help.
1. COc1cc2c(Nc3ccc(NC(=O)c4ccccc4)cc3)ncnc2cc1OCCCN1CCOCC1 = 1
2. C=CC(=O)Nc1ccc(CN(C(=O)Nc2c(Cl)c(OC)cc(OC)c2Cl)c2cc(Nc3ccc(N4CCN(C)CC4)cc3)ncn2)cc1 = 1
3. O=C(Nc1cccc(Nc2ncc(Br)c(NCCc3cnc[nH]3)n2)c1)N1CCCC1 = 1
4. COc1cc2ncn(-c3cc(OCc4ccccc4C(F)(F)F)c(C(N)=O)s3)c2cc1OC = 0
5. CCN(CC)CCCCNc1ncc2c(n1)N(C)C(=O)N(c1c(Cl)c(OC)cc(OC)c1Cl)C2 = 0
6. C=CC(=O)Nc1cc(-n2c(=O)ccc3cnc4ccc(-c5cn[nH]c5)cc4c32)ccc1C = 0
7. CCCS(=O)(=O)Nc1ccc(F)c(C(=O)c2c[nH]c3ncc(-c4ccc(Cl)cc4)cc23)c1F = 1
8. O=c1cc(N2CCOCC2)oc2c(-c3cccc4c3sc3ccccc34)cccc12 = 0

# evaluate next
Exam item: Lab log: compare recorded kinase still bound, per cent of control with 90%; is it strictly lower for NC(=O)Nc1cc(-c2cccc(F)c2)sc1C(=O)N[C@@H]1CCCNC1 ?
Marked response: 1

* * *

# STUDY_SYSTEM: FES (human)
# ASSAY: KINOMEscan competition binding
# EXPERIMENTAL_SETUP: compound 10.0 µM
Binary label based on kinase still bound, per cent of control with cut-off 90%: below gives Condition met, not below gives Condition not met.

The following molecules have reported results that may help.
1. COc1ccc(N(C(=O)Oc2cc(C(=O)Nc3cccc(C(F)(F)F)c3)ccc2C)c2ccnc(Nc3ccc(N4CCN(C)CC4)cc3)n2)c(OC)c1 = Condition met
2. CC(=O)c1c(C)c2cnc(Nc3ccc(N4CCNCC4)cn3)nc2n(C2CCCC2)c1=O = Condition met
3. COc1cc2ncnc(Nc3cccc(Cl)c3)c2cc1OC = Condition not met
4. CCOc1cc(N2CCC(O)CC2)ccc1Nc1ncc2c(n1)N(C)c1ccccc1C(=O)N2C = Condition not met
5. N#C/C(=C1/Nc2ccccc2S1)c1ccnc(NCCc2cccnc2)n1 = Condition not met
6. CC1=C(C(=O)Nc2cc3cn[nH]c3cc2F)C(c2ccc(C(F)(F)F)cc2)CC(=O)N1 (stereo not drawn) = Condition not met

Exam item: Lab log: compare recorded kinase still bound, per cent of control with 90%; is it strictly lower for CNC(=O)Nc1ccc(-c2nc(N3CC4CCC(C3)O4)c3cnn(C4CCC5(CC4)OCCO5)c3n2)cc1 ?
Marked response: Condition not met

Exam item: Lab log: compare recorded kinase still bound, per cent of control with 90%; is it strictly lower for COc1cc(N2CCC(C(N)=O)CC2)ccc1Nc1nc(N)c(Cl)c(Nc2ccccc2S(=O)(=O)C(C)C)n1 ?
Marked response: Condition met

Exam item: Lab log: compare recorded kinase still bound, per cent of control with 90%; is it strictly lower for C=CC(=O)Nc1ccc(C(=O)c2sc(Nc3ccc(N4CCN(C)CC4)cc3OC)nc2N)cc1 ?
Marked response: Condition met

Exam item: Lab log: compare recorded kinase still bound, per cent of control with 90%; is it strictly lower for CCc1nc(-c2cccc(C)c2)c(-c2ccnc(NC(=O)c3ccccc3)c2)s1 ?
Marked response: Condition not met

Exam item: Lab log: compare recorded kinase still bound, per cent of control with 90%; is it strictly lower for CCN1CCN(Cc2ccc(NC(=O)c3ccc(C)c(/C=C/c4cnc5[nH]ccc5c4OC)c3)cc2C(F)(F)F)CC1 ?
Marked response: Condition met

Exam item: Lab log: compare recorded kinase still bound, per cent of control with 90%; is it strictly lower for O=c1[nH]c2ccccc2n1C1CCN(Cc2ccc(-c3nc4cc5[nH]cnc5cc4nc3-c3ccccc3)cc2)CC1 ?
Marked response: Condition not met

* * *

# STUDY_SYSTEM: EPHA7 (human)
# ASSAY: KINOMEscan competition binding
# EXPERIMENTAL_SETUP: compound 10.0 µM
OBSERVATION_TYPE: kinase still bound, per cent of control (%)
Return type: number; implicit unit %.

Lab note: measured kinase still bound, per cent of control of C=CC(=O)Nc1ccc(C(=O)c2sc(Nc3ccc(N4CCN(C)CC4)cc3OC)nc2N)cc1 was 95

Lab note: measured kinase still bound, per cent of control of COc1cc(N2CCC(C(N)=O)CC2)ccc1Nc1nc(N)c(Cl)c(Nc2ccccc2S(=O)(=O)C(C)C)n1 was 15
